# experimental.protocol: Intrinsic metabolic stability in human liver microsomes assessed as metabolic turnover rate per mg protein at 1 uM preincubated for 5 mins followed by NADPH cofactor addition and measured after 30 mins by LC-MS/MS analysis
# Format: ADME, Microsome
# condition.set: 0.5 h
Kindly state Drug metabolism for each of the entries shown.

Nc1ncc(C(=O)N[C@H]2CC/C(=C\c3cccc(Oc4ccc(C(F)(F)F)cn4)c3)CC2)cn1 (stereo not drawn) = ≤ 0.04 nmol/min/mg

// input: 2 compounds below; output: Drug metabolism for each
1. Cc1cc(C(=O)N[C@H]2CC/C(=C\c3cccc(Oc4ccc(C(F)(F)F)cn4)c3)CC2)cnc1N (stereo not drawn)
2. O=C(NC1CCC(=Cc2cccc(Oc3ccc(C(F)(F)F)cn3)c2)CC1)c1cncnc1 (racemic)

0.06 to 0.07 nmol/min/mg
< 0.04 nmol/min/mg
